Assay: soluble fraction after stress (log2 fold change); higher = more stays soluble; pooled small domains, quantitative proteomics;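 further: 20 min heating vs room temperature control held 20 min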
Conditions: stress: 75 degC
Rule: soluble fraction (log2) of -0.7 or more gives class 1; anything lower gives class 0.

{"recordSequence": "HMEDTVNVPIQINGKLRHVIQVQIGTSEEEIQKIALSEEQVKKFTDGHEILKVMVPKGKLVSIVI", "label": "class 0"}

Request: Does soluble fraction (log2) meet or surpass -0.7 for HMKPQKRYLFEEVLTFLKHNSEKSFNYKQLGAAMEISNESDRFTLLETLEELKHQGFVVEKEIGKYQAKE ?
Response: class 0

Request: Quick check: does HMDIVIPIQVKNVSSGEVLDFPSIRAAARDLKFPKTTISLGVRYAGEKAYKGFVMRYRSDDPWPIVQES have soluble fraction (log2) greater than or equal to -0.7?
Response: class 0

Request: hey, is soluble fraction (log2) for this one >= -0.7? HMKETLSDTVSRKLEDMITTQMKAGNRLPTEMVLAEMYSVGRSTIRESLKALSSKGLIVRKKDGTFVSDRV
Response: class 1

Request: Does the reported soluble fraction (log2) for HMSGSIIQQAENLERQFGDTREAILGTLSDPKMSEEILETLMERYNKQHGTNWDKNTWAEEWAKANK fall at or above the -0.7 mark?
Response: class 1

Request: Is soluble fraction (log2) for HMATIIGSIGIVTQKVGLTGVPGRVYVNNESWAAISANGKEIENDTQVIVVKIDGATLIIEKKG at or above -0.7?
Response: class 0

Request: Would you say HMSAQQTFLRDAMRRLNMTRDSFAERIGVRRRALDTWLLPEDSSEYRTMPSIVEKFVGEILGREA shows soluble fraction (log2) at minimum -0.7?
Response: class 1

Request: Evaluate HMGSLGRAIRSRREKMKVGLEELAAKTGLSESHISDIEEGRGFAPVGDILKIARALTIDPGELLK : soluble fraction (log2) at minimum -0.7?
Response: class 1
